Molecular target: Macrophage colony-stimulating factor 1 receptor (Homo sapiens)
Details: at 1 µM
Quantity Measured: residual activity
The reply should consist of the numeric value with the unit placed after it.

*Q* Specify the recorded residual activity for O=C(NC(NC(=S)Nc1ccc(F)c([N+](=O)[O-])c1)C(Cl)(Cl)Cl)C(c1ccccc1)c1ccccc1 (stereo not drawn) , system: Macrophage colony-stimulating factor 1 receptor (Homo sapiens).
*A* 89%

====

Target: Aurora kinase C (Homo sapiens) (UniProt Q9UQB9)
Sequence (Q9UQB9 whole entry): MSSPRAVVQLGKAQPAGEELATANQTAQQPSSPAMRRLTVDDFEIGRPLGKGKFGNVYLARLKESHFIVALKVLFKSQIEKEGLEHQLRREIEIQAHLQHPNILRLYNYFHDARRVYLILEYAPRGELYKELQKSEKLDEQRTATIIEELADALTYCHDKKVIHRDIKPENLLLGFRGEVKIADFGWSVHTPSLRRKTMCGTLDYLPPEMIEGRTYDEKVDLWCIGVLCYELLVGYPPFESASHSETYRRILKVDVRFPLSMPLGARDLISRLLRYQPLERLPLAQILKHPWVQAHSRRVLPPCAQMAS
Details: at 10 µM
Quantity Measured: residual activity
The reply should consist of the numeric value with the unit placed after it.

> print(dat)
                              record.smiles  quantity.measured  reported.value
1          O=C(c1ccccc1)c1ccc(N2CCOCC2)cc1O  residual activity             78%
2  CCN(CC)CCNC(=O)c1c(C)[nH]c(/C=C2\C(=O)Nc3ccc(Cl)cc32)c1C  residual activity              5%
3  Nc1nc(Nc2ccc(S(N)(=O)=O)cc2)nn1C(=O)c1c(F)cccc1F  residual activity              1%
4      COc1ccc(-c2cnc3c(-c4ccsc4)cnn3c2)cc1  residual activity             63%
5  O=C1C(Cl)=C(N2C(=O)CCC2=O)C(=O)c2ccccc21  residual activity             62%

Kindly consider the entry below.
*Q* State its residual activity for this compound: COc1cc2nccc(Oc3ccc(NC(=S)NC(=O)c4ccccc4C)cc3)c2cc1OC
*A* 1%

====

Target: 3-phosphoinositide-dependent protein kinase 1 (Homo sapiens)
Conditions: at 10 µM
Class key for residual activity values: 0 = under 30%, 1 = from 30% up to 80%, 2 = 80% and over

Consider the following illustrative entries.
> print(dat)
                                   compound  qualitative.label
1  Nc1ncnc2c1c(-c1ccc(Oc3ccccc3)cc1)cn2C1CCCC1                  2
2   O=C1Nc2ccccc2/C1=C\c1c(Cl)[nH]c2ccccc12                  2
3  CCN(CC)CCNC(=O)c1c(C)[nH]c(/C=C2\C(=O)Nc3ccc(Cl)cc32)c1C                  1
4  O=C(NC(NC(=S)Nc1ccc(F)c([N+](=O)[O-])c1)C(Cl)(Cl)Cl)C(c1ccccc1)c1ccccc1 (stereo not given)                  2
5        CCCCc1c(-c2ccc(O)cc2)[nH]c2nccnc12                  1
6  Nc1nc(Nc2ccc(S(N)(=O)=O)cc2)nn1C(=O)c1c(F)cccc1F                  0
7  COc1cc2c(cc1OC)-c1n[nH]c(Nc3cccc(F)c3)c1C2                  2
8        NC(=O)Nc1sc(-c2ccc(F)cc2)cc1C(N)=O                  0

*Q* Which band does CCCCc1c(-c2ccc(OC)cc2)[nH]c2nccnc12 fall in?
*A* 1

*Q* Which band does O=C1NC(=O)C(c2c[nH]c3ccccc23)=C1c1c[nH]c2ccccc12 fall in?
*A* 0

====

Biological target: cAMP-dependent protein kinase catalytic subunit alpha (Homo sapiens) (UniProt P17612)
Conditions: at 1 µM
Threshold rule: residual activity greater than or equal to 90% is rule met; below that, rule not met.

Consider the following illustrative entries.
> print(dat)
                                   molecule  qualitative.label
1  COc1ccc2c(c1)c(C1=C(c3c[nH]c4ccccc34)C(=O)NC1=O)cn2CCCN(C)C       rule not met
2       Fc1ccc(-c2nc3n(c2-c2ccncc2)CCS3)cc1           rule met

*Q* Could you verify whether the entry NCCNc1ncc(C(N)=O)c(Nc2cccc(C(F)(F)F)c2)n1 shows residual activity of no less than 90%?
*A* rule met

*Q* Could you verify whether the entry O=S(=O)(NCCNC/C=C/c1ccc(Br)cc1)c1cccc2cnccc12 shows residual activity of no less than 90%?
*A* rule not met

The measurements presented in this section are drawn from ChEMBL document CHEMBL2218924.
